Values compiled from patent US20040202655A1.

- target: human IGF-I receptor on cells (NIH-3T3 fibroblasts expressing the human IGF-IR; DU145 cells) (human, UniProt P08069 31-1367)
- experimental_protocol: cell-based or functional assay
observed_property: IC50 (nM), IGF-1 dependent proliferation of NIH-3T3/hIGF-1R cells (BrdU ELISA)

[
  {
    "binder": "PINT-12A3 IgG (antibody, V domains shown) VH: QVQLVQSGAEVKKPGASVKVSCKASGYSFTNYGLNWVRQAPGQGLEWMGWISPYTGYTNYAQKFQGRVTMTSDKSTSTAYMDLRSLRSDDTAIYYCAREIFSHCSGGSCYPFDYWGQGTLVTVSS VL: LSSELTQDPAVSVALGQTVRITCQGDSLRSYYASWYQQKPGQAPLLVIYGRNNRPSGIPDRFSGSSSGNTASLTITGAQAEDEADYYCNSRDSSTNHGNWVFGGGTQLTVLS",
    "result_value": "> 70 nM"
  }
]
